Assay Text: qHTS assay for small molecule agonists of the antioxidant response element (ARE) signaling pathway measured by Nrf2-dependant transcriptional activity (AID 720636);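 for activation: HepG2 cells with an ARE-driven luciferase reporter; % of control where 0% means no effect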
Experimental Setup: ARE-luc HepG2, Nrf2 luciferase reporter, 16 h; series mostly up to 92.4 µM
Records with an inconclusive call do not appear. Active and inactive are the calls of the source. Calls come from the whole dose curve; as a rule, active = well fitted activation curve with a large enough effect in the repeat runs; inconclusive = weak or mixed curves; inactive = flat fitted curve, though single readings scatter.
Parameter call: string, one of active, inactive

A selection of reference data follows.
[[record]]
compound = "CCC[CH2][Sn]1([CH2]CCC)[O]C(=O)C=CC(=O)[O]1"
label = "active"

[[record]]
compound = "N#CC(CCc1ccc(Cl)cc1)(Cn1cncn1)c1ccccc1 (stereo not given)"
label = "inactive"

[[record]]
compound = "N#Cc1cc(I)c(O)c(I)c1"
label = "inactive"


Inquiry: Per the records of this test, what outcome belongs to "CCOP(=O)(OCC)SCSCC" ?
Reply text: inactive

Inquiry: Per the records of this test, what outcome belongs to c1cc(OCC2CO2)cc(OCC2CO2)c1 (stereo not given) ?
Reply text: inactive

###

Experimental System: Bile acid receptor (Homo sapiens) (UniProt Q96RI1)
Sequence (Q96RI1 whole entry, looked up): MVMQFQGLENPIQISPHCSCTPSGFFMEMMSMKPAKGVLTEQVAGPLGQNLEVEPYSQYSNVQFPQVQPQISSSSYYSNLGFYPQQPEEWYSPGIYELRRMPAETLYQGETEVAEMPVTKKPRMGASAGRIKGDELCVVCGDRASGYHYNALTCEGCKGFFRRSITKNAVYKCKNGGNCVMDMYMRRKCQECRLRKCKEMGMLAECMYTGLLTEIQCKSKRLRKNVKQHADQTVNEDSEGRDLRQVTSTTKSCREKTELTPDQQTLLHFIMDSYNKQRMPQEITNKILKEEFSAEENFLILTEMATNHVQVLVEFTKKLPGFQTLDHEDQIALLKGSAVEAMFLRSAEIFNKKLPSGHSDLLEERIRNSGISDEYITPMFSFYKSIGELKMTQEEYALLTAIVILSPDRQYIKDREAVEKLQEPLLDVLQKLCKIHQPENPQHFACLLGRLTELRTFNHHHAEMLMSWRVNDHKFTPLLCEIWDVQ
Assay Text: qHTS assay for small molecule agonists of farnesoid X receptor signaling (AID 588527);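 note: 0% = vehicle basal and 100% = reference agonist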
Experimental Setup: HEK293T FXR-UAS-bla, beta-lactamase ratio, 16 h; stronger effect = higher value
Inconclusive results are not listed.
Please go through the items and note down their activation.
Numbers only, in %.

Worked examples follow.
[[record]]
compound = "CC(=O)Nc1ccc(C(=O)CCl)cc1"
experimental_system = "Bile acid receptor (Homo sapiens) (UniProt Q96RI1)"
property_label = "activation"
measurement_units = "%"
recorded_value = 2.69

[[record]]
compound = "C=C(C)c1ccccc1"
experimental_system = "Bile acid receptor (Homo sapiens) (UniProt Q96RI1)"
property_label = "activation"
measurement_units = "%"
recorded_value = -3.16

[[record]]
compound = "c1ccc2c(c1)ccc1c3ccccc3ccc21"
experimental_system = "Bile acid receptor (Homo sapiens) (UniProt Q96RI1)"
property_label = "activation"
measurement_units = "%"
recorded_value = -1.28

[[record]]
compound = "CCC[CH2][Sn]([CH2]CCC)[CH2]CCC"
experimental_system = "Bile acid receptor (Homo sapiens) (UniProt Q96RI1)"
property_label = "activation"
measurement_units = "%"
recorded_value = 6.72


Take each entry in turn and give its activation.
1. CCOP(=O)(OCC)SCS(=O)(=O)C(C)(C)C
2. CCC(C)(c1ccc(O)cc1)c1ccc(O)cc1
3. CN(C)c1nc(=O)n(C2CCCCC2)c(=O)n1C

Reply text:
1: -5.69; 2: 1.29; 3: -1.35

###

Assay Text: qHTS assay for small molecule antagonists of retinoid X receptor alpha signaling (AID 588546);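 note: cells stimulated with 9-cis-retinoic acid as agonist; % is set by controls: 0 for no effect and ±100 for the full control effect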
Experimental Setup: HEK293T RXRa-UAS-bla, beta-lactamase ratio, antagonist mode; measured here: W530 green channel, cytotoxicity proxy
Inconclusive results are not listed.
Property Label: max response (%)
Give bare numbers, in %.

[[record]]
compound = "O=[N+]([O-])c1ccc(Oc2ccc(Cl)cc2Cl)cc1"
recorded_value = -7.09

[[record]]
compound = "C#CCN1CC(=O)N(COC(=O)[C@@H]2[C@@H](C=C(C)C)C2(C)C)C1=O"
recorded_value = -1.89

[[record]]
compound = "CCOP(=O)(NC(C)C)Oc1ccc(S(C)=O)c(C)c1 (stereo not given)"
recorded_value = -12.4


Take each entry in turn and give its max response.
1. Nc1nc(N)nc(N)n1
2. CC(C)CCCCCCOC(=O)c1ccccc1C(=O)OCCCCCCC(C)C
3. Cc1cc(Cl)ccc1N=CN(C)C
4. O=C(O)C(F)(F)C(F)(F)C(F)(F)C(F)(F)C(F)(F)F
5. CC1=NNC(=O)N(/N=C/c2cccnc2)C1

Reply text:
[-0.207, -8.76, -3.88, 3.1, -9.27]

Take each entry in turn and give its max response.
1. CNC(=O)O/N=C(\SC)C(=O)N(C)C
2. COc1nn(C(=O)NS(=O)(=O)c2ccccc2OC(F)(F)F)c(=O)n1C

Reply text:
-5.53
-2.65

###

Experimental System: Retinoic acid receptor RXR-alpha (Homo sapiens) (UniProt P19793)
Sequence (P19793 whole entry, looked up): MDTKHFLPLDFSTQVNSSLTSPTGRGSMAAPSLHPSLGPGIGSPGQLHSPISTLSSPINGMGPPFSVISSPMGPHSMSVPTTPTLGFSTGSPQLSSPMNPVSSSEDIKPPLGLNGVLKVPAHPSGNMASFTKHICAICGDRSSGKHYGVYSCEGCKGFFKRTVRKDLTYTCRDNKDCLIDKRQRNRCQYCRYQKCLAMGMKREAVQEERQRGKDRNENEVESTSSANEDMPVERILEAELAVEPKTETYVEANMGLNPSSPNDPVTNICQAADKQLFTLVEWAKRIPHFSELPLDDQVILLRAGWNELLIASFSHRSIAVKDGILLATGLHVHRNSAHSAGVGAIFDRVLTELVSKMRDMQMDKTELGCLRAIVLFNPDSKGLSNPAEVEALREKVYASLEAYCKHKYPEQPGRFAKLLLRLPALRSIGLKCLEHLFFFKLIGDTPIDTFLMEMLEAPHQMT
Assay Text: qHTS assay for small molecule antagonists of retinoid X receptor alpha signaling (AID 588546);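 note: cells stimulated with 9-cis-retinoic acid as agonist; % is set by controls: 0 for no effect and ±100 for the full control effect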
Experimental Setup: HEK293T RXRa-UAS-bla, beta-lactamase ratio, antagonist mode
Results filed as inconclusive are left out.
Please go through the items and note down their max response.
Numbers only, in %.

Worked examples follow.
[[record]]
compound = "CN/C(=N\\[N+](=O)[O-])NCc1cnc(Cl)s1"
recorded_value = -1.36

[[record]]
compound = "COP(=S)(OC)Oc1ccc([N+](=O)[O-])c(C)c1"
recorded_value = -30.1

[[record]]
compound = "C/C(=N\\C(N)=O)N(C)Cc1ccc(Cl)nc1"
recorded_value = -3.51

[[record]]
compound = "COC(=O)c1ccccc1S(=O)(=O)NC(=O)Nc1nc(C)nc(OC)n1"
recorded_value = 25.6

[[record]]
compound = "CC(C)CC(C)Nc1ccc(Nc2ccccc2)cc1 (stereo not given)"
recorded_value = -33.2

[[record]]
compound = "CCOc1nc(NC)nc(NC(=O)NS(=O)(=O)c2ccccc2C(=O)OC)n1"
recorded_value = 20.8


Take each entry in turn and give its max response.
1. CCC/C(=N\OCC)C1=C(O)CC(CC(C)SCC)CC1=O (stereo not given)
2. COC[C@H](C)N(C(=O)CCl)c1c(C)csc1C
3. CSC(=O)c1c(C(F)F)nc(C(F)(F)F)c(C(=O)SC)c1CC(C)C
4. Cc1ccccc1CO[C@@H]1C[C@@]2(C(C)C)CC[C@]1(C)O2
5. COc1ccc(C(O)(c2cncnc2)C2CC2)cc1 (stereo not given)

Reply text:
[-23, -19.4, -15.4, -22.7, 1.16]

Take each entry in turn and give its max response.
1. CCOC(=O)Nc1cccc(OC(=O)Nc2ccccc2)c1
2. CCC(C)(C)c1ccc(O)c(C(C)(C)CC)c1
3. N#Cc1cc(Br)c(O)c(Br)c1
4. OC(Cn1cncn1)(c1ccc(F)cc1)c1ccccc1F (stereo not given)
5. CCCCOC(=O)c1ccccc1C(=O)O

Reply text:
1. -20.8
2. 0.417
3. 1.7
4. -2.11
5. 13.7

Take each entry in turn and give its max response.
1. CC(C)(C)C(=O)[C@H](Oc1ccc(Cl)cc1)n1cncn1
2. CNC(=O)Oc1cccc2c1OC(C)(C)C2O (stereo not given)
3. ClCc1ccccc1Cl
4. CNC(=O)Oc1ccc(N(C)C)c(C)c1
5. Cc1ccn2nc(S(=O)(=O)Nc3c(F)cccc3F)nc2n1

Reply text:
[-22, -10.3, 0.106, 7.08, -2.18]

Take each entry in turn and give its max response.
1. CCSCCSP(=O)(OC)OC
2. CC(C)(C)C(=O)[C@@H](Oc1ccc(Cl)cc1)n1cncn1

Reply text:
[-0.524, 9.68]

###

Assay Text: qHTS Assay for Identification of Small Molecule Agonists for Hypoxia Response Element Signaling Pathway (AID 914); note: % of control where 0% means no effect
Experimental Setup: ME-180 (cervical carcinoma) HRE-bla reporter, beta-lactamase ratio, CoCl2, 17 h; stronger effect = higher value
Records with an inconclusive call do not appear.
Property Label: activation (%)
Answers are plain numbers, in %.

[[record]]
compound = "C/C(Cl)=C/CC1(CN2CCCC2=O)C(=O)NC(=O)NC1=O"
property_label = "activation"
measurement_units = "%"
recorded_value = 3.38

[[record]]
compound = "COc1ccc(OC)c([C@@H](O)[C@H](C)NC(C)(C)C)c1"
property_label = "activation"
measurement_units = "%"
recorded_value = 0.127


Take each entry in turn and give its activation.
1. CN[C@@H](C)[C@@H](O)c1ccccc1
2. O=C1NCCN2CCCC12 (stereo unspecified)
3. COCCOC(=O)C1=C(N)Oc2c(c(=O)oc3ccccc23)[C@@]12C(=O)Nc1ccccc12
4. CC1=C(C(=O)OC(C)C)[C@]2(C(=O)N(CC(N)=O)c3ccccc32)C(C#N)=C(N)O1

Reply text:
1: 24.4; 2: 9.17; 3: -0.572; 4: -4.16

###

Assay Text: Cell Viability - LYMP2-019 (AID 973);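 note: cells exposed to compound for 24 h at 37 °C; nearly all actives have a fitted effect of over 55% in size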
Experimental Setup: LYMP2-019 lymphoblastoid cell line viability; series mostly up to 92.2 µM
Inconclusive results are not listed. Calls of active or inactive are those of the source. Calls come from the whole dose curve; as a rule, active = well fitted cell-killing curve with a large enough effect; inconclusive = small, poorly fitted or top-dose-only effect; inactive = flat fitted curve, though single readings scatter.
Parameter call: string, one of true = active, false = inactive

A selection of reference data follows.
[[record]]
line_notation = "O=[N+]([O-])C(Br)Br"
label = "true"

[[record]]
line_notation = "FC(F)(F)c1ccc(Cl)cc1"
label = "false"


Would you kindly look at the next entry?
Inquiry: Per the records of this test, what outcome belongs to "O=Nc1ccc(Nc2ccccc2)cc1" ?
Reply text: true

###

Experimental System: Glucocorticoid receptor (Homo sapiens)
Assay Text: GR-GFP Redistribution (AID 450); note: potency is the fitted concentration of half-maximal effect
Experimental Setup: U2OS GR-GFP nuclear translocation, laser cytometry, 2 h
Activity calls are given as the source filed them.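 Rule for the calls: active = compounds whose dose series gives a full or clear partial fitted curve of increased nuclear translocation; inconclusive = weak partial curve or effect only at the top dose; inactive = no dose-dependent translocation response.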
Property Label: Potency

Worked examples follow.
[[record]]
molecule = "O=c1ccc2cc(O[C@@H]3O[C@@H](CO)[C@@H](O)[C@@H](O)[C@H]3O)c(O)cc2o1"
recorded_value = "> 46 µM (inactive)"

[[record]]
molecule = "O=c1[nH]c(=O)n(Cc2ccco2)c(O)c1C=NCc1ccc2c(c1)OCO2"
recorded_value = "> 20.6 µM (inactive)"


Inquiry: Consider the molecule CC1(C)CC(n2[nH]c(=O)c3c2NC(=O)CSC3c2ccccc2)CCO1 (stereo not drawn) and give its measured Potency.
Reply text: > 20.6 µM (inactive)
